Source of measurements: patent US20230102223A1

target: refolded His-NS3 protease domain (Dengue virus type 2, UniProt P29990); test: Surface plasmon resonance (SPR); assay type: binding
REPORTED_PROPERTY: pKd
Numbers only, as −log10 of the molar value.

Inquiry: Return reported pKd; argument: O=C(Nc1ccc([N+](=O)[O-])cc1Cl)c1cc(Cl)ccc1O [Niclosamide]
Reply text: 5.19

---

biological target: NS2B-NS3 interactions (Nluc-E66stop/GCN) (Dengue virus type 2); assay: biochemical; format: binding, DENV2; conditions: NS2B-NS3 SLC signal; read-out: SLC IC50
Sequence (P29990 1476-1660 limits assumed): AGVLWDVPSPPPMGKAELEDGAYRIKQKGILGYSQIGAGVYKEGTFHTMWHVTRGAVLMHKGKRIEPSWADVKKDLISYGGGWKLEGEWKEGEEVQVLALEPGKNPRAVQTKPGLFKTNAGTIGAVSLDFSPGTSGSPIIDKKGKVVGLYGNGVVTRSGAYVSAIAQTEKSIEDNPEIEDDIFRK
REPORTED_PROPERTY: IC50 (µM)
Numbers only, in µM.

Some compounds with recorded IC50:
Inquiry: Return reported IC50; argument: CCN(CC)c1ccc(C(=C2C=CC(=[N+](CC)CC)C=C2)c2cc(S(=O)(=O)O)ccc2S(=O)(=O)[O-])cc1 [Isosulfan blue]
Reply text: 12.2

Inquiry: Return reported IC50; argument: Cc1cc2nc3ccc(N(C)C)cc3[s+]c2cc1N [Toluidine blue]
Reply text: 14.3

***
Inquiry: Return reported IC50; argument: CC(C)CCOC(=O)c1ccc(N(C)C)cc1 [Padimate]
Reply text: 14.4

---

molecular target: refolded His-NS3 protease domain (Dengue virus type 2); experiment: Surface plasmon resonance (SPR); type: binding; settings: 25° C., 1:1 Langmuir binding model; read-out: dissociation constant (KD)
REPORTED_PROPERTY: Kd (µM)
One number for each entry, in µM.

Inquiry: Under refolded His-NS3 protease domain (Dengue virus type 2): Kd value of CC(=O)Oc1ccccc1C(=O)Nc1ncc([N+](=O)[O-])s1 [Nitazoxanide] ?
Reply text: 7.3

---

tested on: A549 cells; test: Cytotoxicity, MTT or WST-8 cell proliferation assay; details: Table 3
REPORTED_PROPERTY: CC50 (µM)
One number for each entry, in µM.

Inquiry: Return reported CC50; argument: CC(=O)Oc1ccccc1C(=O)Nc1ncc([N+](=O)[O-])s1 [Nitazoxanide]
Reply text: 60

---

target: DENV2 His-NS2B/His-MBP-NS3 protease (Dengue virus type 2); assay: NS2B/NS3 protease inhibition assay; format: biochemical; conditions: Table 1; read-out: NS2B-MBP NS3 protease IC50
Sequence (P29990 1476-1660 limits assumed): as above
Assignment: determine reported IC50 for the given molecules.
One number for each entry, in µM.

Some molecules with recorded IC50:
Inquiry: Return reported IC50; argument: O=C(Nc1ccc([N+](=O)[O-])cc1Cl)c1cc(Cl)ccc1O [Niclosamide]
Reply text: 12.3

Inquiry: Return reported IC50; argument: CN(C)c1ccc2nc3ccc(=[N+](C)C)cc-3sc2c1
Reply text: 41.6

Inquiry: Return reported IC50; argument: O=C(O)c1cccc(-c2noc(-c3ccccc3F)n2)c1
Reply text: 21.6

Below: the item to evaluate.
Inquiry: Return reported IC50; argument: CC(=O)Oc1ccccc1C(=O)Nc1ncc([N+](=O)[O-])s1 [Nitazoxanide]
Reply text: 15.9

---

target: NS2B-NS3 interactions (Nluc-E66stop/GCN) (Dengue virus type 2); experiment: biochemical; assay type: binding, DENV2
REPORTED_PROPERTY: IC50 (µM)
Give bare numbers, in µM.

Some compounds with recorded IC50:
Inquiry: Return reported IC50; argument: Nc1ccc(N=Nc2ccccc2)cc1 [4-Aminoazobenzene]
Reply text: 12.6

Inquiry: Return reported IC50; argument: CC(=O)Oc1ccccc1C(=O)Nc1ncc([N+](=O)[O-])s1 [Nitazoxanide]
Reply text: 3.4

Inquiry: Return reported IC50; argument: COc1ccc2nc(NC(=O)Nc3ccccc3)sc2c1 [Frentizole]
Reply text: 0.38

Inquiry: Return reported IC50; argument: O=c1c(-c2ccc(O)cc2)coc2cc(O)cc(O)c12 [Genistein]
Reply text: 7.2

Inquiry: Return reported IC50; argument: O=C(O)c1cccc(-c2noc(-c3ccccc3F)n2)c1 [Ataluren]
Reply text: 0.1

Inquiry: Return reported IC50; argument: O=C(Nc1ncc([N+](=O)[O-])s1)c1cccs1 [Tenonitrozole]
Reply text: 4.9

Hey, quick one: what's IC50 for each of these?
1. c1ccc(CCNc2nc(-c3ccccc3)cs2)cc1 [Fanetizole]
2. Cc1ccc(O)c(-n2nc3ccccc3n2)c1 [2-(2H-Benzotriazol-2-yl)-4 methylphenol]
3. Oc1ccc(C=Cc2cc(O)cc(O)c2)cc1 [Resveratrol]
4. CN(C)c1ccc2nc3ccc(=[N+](C)C)cc-3sc2c1 [Methylene blue]
5. O=C(Nc1ccc([N+](=O)[O-])cc1Cl)c1cc(Cl)ccc1O [Niclosamide]
6. CC(C)Oc1ccc2c(=O)c(-c3ccccc3)coc2c1 [Ipriflavone]
7. Clc1ccccc1-c1nc(-c2ccncc2)no1 [Pifexole]

Reply text:
12.4
7.8
9
5.5
0.7
5.3
7.5
